STUDY_SYSTEM: CDK7/cyclinH/MAT1 trimeric complex (Homo sapiens (Human))
Sequence (P50613 whole entry): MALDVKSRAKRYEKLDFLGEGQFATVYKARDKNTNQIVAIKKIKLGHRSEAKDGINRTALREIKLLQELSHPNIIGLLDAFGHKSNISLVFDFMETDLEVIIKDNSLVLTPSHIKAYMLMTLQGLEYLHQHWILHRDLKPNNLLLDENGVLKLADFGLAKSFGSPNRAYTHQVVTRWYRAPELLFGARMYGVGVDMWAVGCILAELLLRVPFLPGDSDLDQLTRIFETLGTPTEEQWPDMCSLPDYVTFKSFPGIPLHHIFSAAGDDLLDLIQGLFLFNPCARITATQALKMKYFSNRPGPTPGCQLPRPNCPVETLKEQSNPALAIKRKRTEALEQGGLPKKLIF
Sequence (P51946 whole entry partner): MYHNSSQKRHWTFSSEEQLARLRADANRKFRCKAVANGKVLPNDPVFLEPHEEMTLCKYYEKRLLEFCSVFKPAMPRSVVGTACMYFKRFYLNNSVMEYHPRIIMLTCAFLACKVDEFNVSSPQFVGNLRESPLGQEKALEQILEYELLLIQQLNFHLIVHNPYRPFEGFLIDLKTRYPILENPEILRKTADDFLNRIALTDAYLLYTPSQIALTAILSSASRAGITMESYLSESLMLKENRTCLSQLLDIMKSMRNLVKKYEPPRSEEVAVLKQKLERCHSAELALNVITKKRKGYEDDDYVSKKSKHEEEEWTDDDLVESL
Sequence (P51948 whole entry partner): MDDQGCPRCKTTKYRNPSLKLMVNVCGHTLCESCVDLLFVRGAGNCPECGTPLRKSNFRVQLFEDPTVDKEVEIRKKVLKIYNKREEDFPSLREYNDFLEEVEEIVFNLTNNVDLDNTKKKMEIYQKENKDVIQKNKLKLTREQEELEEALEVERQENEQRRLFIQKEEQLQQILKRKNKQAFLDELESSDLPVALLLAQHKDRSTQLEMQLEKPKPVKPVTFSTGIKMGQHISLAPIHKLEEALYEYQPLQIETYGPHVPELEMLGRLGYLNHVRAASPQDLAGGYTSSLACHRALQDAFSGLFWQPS
ASSAY_NAME: In vitro CDK7 assay, potency of irreversible covalent inhibitors (kinact/KI)
MEASUREMENT_SETUP: read-out: CDK7 (20 nM enz.) (kinact, s^−1), 20 nM enz.
METRIC_NAME: kinact (s⁻¹)

>>> recorded_number("C#Cc1cc(C2CCN(C3CN(C(=O)C#CC)C3)CC2)cc2c1O[C@@H](C)c1c(ncnc1N1CCS(=O)(=O)CC1)N2")
"8.29e-05"
>>> recorded_number("C=CC(=O)N1CC[C@@H](N2CCC(c3cc(C)c4c(c3)Nc3ncnc(N5CCS(=O)(=O)CC5)c3CO4)CC2)C1 (single isomer, unassigned)")
"4.67e-05"
>>> recorded_number("C=CC(=O)N1CCC(N2CC(c3cc4c(c(C(F)(F)F)c3)OCc3c(ncnc3-c3cnn(C)c3)N4)C2)CC1")
"4.31e-05"

1. C=CC(=O)N1CC[C@@H](N2CCC(c3cc(C)c4c(c3)Nc3ncnc(N5CCOCC5)c3CO4)CC2)C1
2. C=CC(=O)N1CC(N2CCC(c3ccc4c(c3)Nc3ncnc(N5CCOCC5)c3[C@@H](C)O4)CC2)C1 (single isomer, unassigned)
3. C=CC(=O)N1CC(N2CCC(c3ccc4c(c3)Nc3ncnc(N5CCOCC5)c3[C@@H](CC)O4)CC2)C1 (single isomer, unassigned)
Q. hey, can you rank those compounds up there by kinact? biggest number first please Your reply should list the labels following the order given in the request.
A. 2, 1, 3
(2: 8.48e-05 s⁻¹, 1: 5.64e-05 s⁻¹, 3: 3.9e-05 s⁻¹)
